The measured values listed here are drawn from ChEMBL document CHEMBL1649581.

Reported ED50 values for a set of compounds
tested on: Staphylococcus aureus; assay: Antibacterial activity against Staphylococcus aureus TS5337 harboring ddlA Pro178Ser mutation in fifth-instar silkworm larva infection model assessed as compound concentration per gram of larva […] after 48 hrs post dose at 27 degC; assay type: functional
reported_metric: ED50 (µg)

[[record]]
cpd_smiles = "N[C@@H]1CONC1=O"
reported_metric = "ED50"
numeric_value = 5.4

[[record]]
cpd_smiles = "CO[C@@]1(NC(=O)CSC(F)F)C(=O)N2C(C(=O)O)=C(CSc3nnnn3CCO)CO[C@@H]21"
reported_metric = "ED50"
numeric_value = 0.031

[[record]]
cpd_smiles = "CN[C@H](CC(C)C)C(=O)N[C@H]1C(=O)N[C@@H](CC(N)=O)C(=O)N[C@H]2C(=O)N[C@H]3C(=O)N[C@H](C(=O)N[C@H](C(=O)O)c4cc(O)cc(O)c4-c4cc3ccc4O)[C@H](O)c3ccc(c(Cl)c3)Oc3cc2cc(c3O[C@@H]2O[C@H](CO)[C@@H](O)[C@H](O)[C@H]2O[C@H]2C[C@](C)(N)[C@H](O)[C@H](C)O2)Oc2ccc(cc2Cl)[C@H]1O"
reported_metric = "ED50"
numeric_value = 0.45

[[record]]
cpd_smiles = "CN(C)[C@@H]1C(O)=C(C(N)=O)C(=O)[C@@]2(O)C(O)=C3C(=O)c4c(O)cccc4[C@@](C)(O)[C@H]3C[C@@H]12"
reported_metric = "ED50"
numeric_value = 0.75

